# TARGET SYSTEM: T1, cynomolgus monkey CD137 (cynomolgus monkey, UniProt Q07011 24-186 (human entry), limits assumed)
# T1 construct: Soluble analyte in the Biacore assay; also called cyno CD137
# T1 chain: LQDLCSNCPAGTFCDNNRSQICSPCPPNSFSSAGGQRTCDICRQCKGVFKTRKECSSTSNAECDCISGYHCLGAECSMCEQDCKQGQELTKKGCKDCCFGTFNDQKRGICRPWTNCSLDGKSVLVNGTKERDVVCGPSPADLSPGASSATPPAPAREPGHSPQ
# ASSAY PROTOCOL: SPR Biacore T200, IgG captured on protein A, antigen as analyte, 25 C;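 also: antigens flowed over a CM3 chip for 120 s association, KD derived from ka and kd, running buffer (ACES, NaCl, Tween20, pH 7.4) served as blank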
MEASURED METRIC: koff (s⁻¹)
Write the value in s⁻¹ as a bare number.

Sample records with koff:
dBBDu_186 / dBBDu_L096 (antibody, human IgG1, V domains shown, Tested as IgG (human IgG1 constant region, kappa light chain); also called dBBDu186/L096) VH: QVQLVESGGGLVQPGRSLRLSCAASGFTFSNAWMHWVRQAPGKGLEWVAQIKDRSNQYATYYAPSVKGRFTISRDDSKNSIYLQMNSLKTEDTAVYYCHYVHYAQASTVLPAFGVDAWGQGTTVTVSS VL: DIVMTQSPLSLPVTPGEPASISCRTSQELVHINRYIFLHWYQQKPGQAPRLLIYKVYNRFQGVPDRFSGSGSGTDFTLKISRVEAEDVGVYYCAQGTSVPYTFGQGTKLEIK    0.00223
dBBDu_167 / dBBDu.L094 (antibody, human IgG1, V domains shown, Tested as IgG (human IgG1 constant region, kappa light chain); also called dBBDu167/L094; dBBDu_167/L094) VH: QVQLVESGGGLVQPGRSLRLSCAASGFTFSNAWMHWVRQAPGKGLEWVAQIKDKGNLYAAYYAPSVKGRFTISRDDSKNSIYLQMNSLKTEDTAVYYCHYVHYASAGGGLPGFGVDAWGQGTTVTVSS VL: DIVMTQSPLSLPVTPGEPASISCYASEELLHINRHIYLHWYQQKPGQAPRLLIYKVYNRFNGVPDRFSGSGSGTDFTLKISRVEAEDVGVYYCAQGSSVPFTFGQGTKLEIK    0.0748

Okay, now this binder:
Q) Output koff of dBBDu_183 / dBBDu_L072 (antibody, human IgG1, V domains shown, Tested as IgG (human IgG1 constant region, kappa light chain); also called dBBDu183/L072; H183L072) VH: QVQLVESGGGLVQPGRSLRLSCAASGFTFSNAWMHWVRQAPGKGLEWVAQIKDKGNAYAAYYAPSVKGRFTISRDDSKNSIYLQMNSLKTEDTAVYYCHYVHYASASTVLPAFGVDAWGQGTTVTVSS VL: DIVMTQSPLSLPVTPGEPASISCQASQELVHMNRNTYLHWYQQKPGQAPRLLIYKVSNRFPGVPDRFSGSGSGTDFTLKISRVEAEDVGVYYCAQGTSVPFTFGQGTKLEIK
A) 0.00593

Every entry's value here was drawn from patent US20240270846A1.
